Taken from ChEMBL document CHEMBL3885861.

# Organism: Rattus norvegicus
# protocol.details: Open TG-GATES - Regimen: Single
# Assay type: toxicity, organism-based, Sprague-Dawley
# Set-up: regimen Single, gender Male, age 6 weeks
# condition.context: in vivo, po, 0 mg/kg, 9 h, tissue Blood, route gavage, dose level Control
property.label: MCV

| molecule | property.label | value |
| --- | --- | --- |
| CN(C)[C@@H]1C(O)=C(C(N)=O)C(=O)[C@@]2(O)C(O)=C3C(=O)c4c(O)cccc4[C@@](C)(O)[C@H]3C[C@@H]12 | MCV | 65.7 fL |
| CCOC(=O)[C@H](CCc1ccccc1)N[C@@H](C)C(=O)N1CCC[C@H]1C(=O)O | MCV | 66.8 fL |
| CN1C(C(=O)Nc2ccccn2)=C(O)c2sc(Cl)cc2S1(=O)=O | MCV | 62.7 fL |
| Clc1c(Cl)c(Cl)c(Cl)c(Cl)c1Cl | MCV | 60.2 fL |
| C1CCC(C(CC2CCCCN2)C2CCCCC2)CC1 (stereo not given) | MCV | 64.6 fL |
| CC(=O)Nc1nnc(S(N)(=O)=O)s1 [ACETAZOLAMIDE] | MCV | 64.3 fL |
| C#C[C@]1(O)CC[C@H]2[C@@H]3CCC4=Cc5oncc5C[C@]4(C)[C@H]3CC[C@@]21C | MCV | 64 fL |
| CC(CN1c2ccccc2Sc2ccccc21)N(C)C (stereo not given) | MCV | 64 fL |
| COc1cc([C@@H]2c3cc4c(cc3[C@@H](O[C@@H]3O[C@@H]5CO[C@@H](C)O[C@H]5[C@H](O)[C@H]3O)[C@H]3COC(=O)[C@H]23)OCO4)cc(OC)c1O [ETOPOSIDE] | MCV | 65.6 fL |
| Cc1cccc(Nc2ccccc2C(=O)O)c1C | MCV | 62.6 fL |

====

# Species: Rattus norvegicus
# protocol.details: Open TG-GATES - Regimen: Daily Repeat
# Type: toxicity, organism-based, Sprague-Dawley
# Parameters: regimen Daily Repeat, gender Male, age 6 weeks
# condition.context: in vivo, po, 0 mg/kg, 72 h, tissue Liver, route gavage, dose level Control, time 3 day
Listed here: items and their measured LIVER.

| molecule | LIVER (g) |
| --- | --- |
| C#C[C@]1(O)CC[C@H]2[C@@H]3CCC4=Cc5oncc5C[C@]4(C)[C@H]3CC[C@@]21C | 11.6 |
| CN1C(C(=O)Nc2ccccn2)=C(O)c2sc(Cl)cc2S1(=O)=O | 10.9 |
| Clc1c(Cl)c(Cl)c(Cl)c(Cl)c1Cl | 11.5 |
| CC(CN1c2ccccc2Sc2ccccc21)N(C)C (stereo not drawn) | 11.1 |
| Cc1cccc(Nc2ccccc2C(=O)O)c1C | 11.2 |
| C1CCC(C(CC2CCCCN2)C2CCCCC2)CC1 (stereo not drawn) | 11.1 |
| CCOC(=O)[C@H](CCc1ccccc1)N[C@@H](C)C(=O)N1CCC[C@H]1C(=O)O | 12.4 |
| CN(C)[C@@H]1C(O)=C(C(N)=O)C(=O)[C@@]2(O)C(O)=C3C(=O)c4c(O)cccc4[C@@](C)(O)[C@H]3C[C@@H]12 | 9 |

====

Listed here: items and their measured Cl.
# Organism: Rattus norvegicus
# protocol.details: Open TG-GATES - Regimen: Daily Repeat
# Assay type: toxicity, organism-based, Sprague-Dawley
# Design: regimen Daily Repeat, gender Male, age 6 weeks
# condition.context: in vivo, po, 0 mg/kg, 72 h, tissue Plasma, route gavage, dose level Control, time 3 day

| molecule | quantity.unit | Cl |
| --- | --- | --- |
| CN(C)[C@@H]1C(O)=C(C(N)=O)C(=O)[C@@]2(O)C(O)=C3C(=O)c4c(O)cccc4[C@@](C)(O)[C@H]3C[C@@H]12 [TETRACYCLINE] | meq/L | 105.4 |
| CC(CN1c2ccccc2Sc2ccccc21)N(C)C (stereo not drawn) [PROMETHAZINE] | meq/L | 105.2 |
| CC(=O)Nc1nnc(S(N)(=O)=O)s1 [ACETAZOLAMIDE] | meq/L | 106.6 |
| C1CCC(C(CC2CCCCN2)C2CCCCC2)CC1 (stereo not drawn) [PERHEXILINE] | meq/L | 107.2 |
| Cc1cccc(Nc2ccccc2C(=O)O)c1C [MEFENAMIC ACID] | meq/L | 103.2 |
| Clc1c(Cl)c(Cl)c(Cl)c(Cl)c1Cl [PERCHLOROBENZENE] | meq/L | 105.2 |
| CCOC(=O)[C@H](CCc1ccccc1)N[C@@H](C)C(=O)N1CCC[C@H]1C(=O)O | meq/L | 105 |
| CN1C(C(=O)Nc2ccccn2)=C(O)c2sc(Cl)cc2S1(=O)=O [LORNOXICAM] | meq/L | 104.2 |
